Ref: ChEMBL document CHEMBL1141279

Recorded log10(IC50) values (Acetylcholinesterase (Homo sapiens)) are given below.
Heads up: the numbers are on a log10 scale; they represent IC50 in µM.

Before answering, review these 7 worked examples.
>  <COMPOUND>
Oc1ccc2c3c1O[C@H]1C[C@@H](O)C=C[C@@]31CCNC2

>  <REPORTED VALUE>
0.16

$$$$
>  <COMPOUND>
COc1cc2c(cc1OC)-c1cccc3c1N(CC3)C2

>  <REPORTED VALUE>
0.59

$$$$
>  <COMPOUND>
O[C@H]1[C@H]2c3cc4c(cc3CN3CCC(=C[C@@H]1O)[C@H]23)OCO4

>  <REPORTED VALUE>
2.19

$$$$
>  <COMPOUND>
COc1cc2c(c(OC)c1OC)C(=O)O[C@]21[C@H](O)[C@@H](O)C=C2CCN(C)[C@H]21

>  <REPORTED VALUE>
2.05

$$$$
>  <COMPOUND>
COc1cc2c(cc1OC)[C@]1(OC2=O)[C@H](O)[C@@H](O)C=C2CCN(C)[C@H]21

>  <REPORTED VALUE>
0.37

$$$$
>  <COMPOUND>
[O-]c1cc2c3c(c1)c1cc4c(cc1c[n+]3CC2)OCO4

>  <REPORTED VALUE>
0.59

$$$$
>  <COMPOUND>
CC(=O)O[C@H]1[C@H]2c3cc4c(cc3CN3CCC(=C[C@@H]1O)[C@H]23)OCO4

>  <REPORTED VALUE>
-0.02

$$$$

Here is the next item to consider.
Q: Can you look up the measured log10(IC50) of CO[C@@H]1C=C[C@@]23c4cc5c(cc4CN(C[C@@H]2O)[C@H]3C1)OCO5 [(+)-HAEMANTHAMINE] for me?
Result: 2.66
